target: UniProt:Q99808
Sequence (Q99808 whole entry, looked up): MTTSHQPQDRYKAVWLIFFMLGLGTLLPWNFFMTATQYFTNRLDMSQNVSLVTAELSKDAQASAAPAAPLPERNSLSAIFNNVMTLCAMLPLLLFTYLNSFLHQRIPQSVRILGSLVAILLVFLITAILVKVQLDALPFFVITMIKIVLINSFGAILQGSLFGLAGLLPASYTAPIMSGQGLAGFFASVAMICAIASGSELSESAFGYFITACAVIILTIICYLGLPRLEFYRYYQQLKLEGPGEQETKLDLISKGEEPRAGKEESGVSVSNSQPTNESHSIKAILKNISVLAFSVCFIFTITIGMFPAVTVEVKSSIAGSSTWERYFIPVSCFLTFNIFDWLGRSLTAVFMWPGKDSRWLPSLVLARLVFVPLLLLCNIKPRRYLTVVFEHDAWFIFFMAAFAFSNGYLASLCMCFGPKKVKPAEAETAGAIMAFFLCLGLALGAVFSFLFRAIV
pIC50: −log10 of the molar value.

compound | pIC50
NC(=O)C1CN(CCCCC(c2ccc(F)cc2)c2ccc(F)cc2)CCN1CC(=O)Nc1c(Cl)cc(N)cc1Cl (stereo unspecified) | 8.27
